# Test system: Murid betaherpesvirus 1
# procedure_details: Inhibition of MCMV replication in MFF cells by plaque reduction assay
# Assay type: functional, organism-based
# assay_context: Murid betaherpesvirus 1, MFF
recorded_endpoint: EC50 (µM)
Report the value in µM with no unit label.

State the recorded EC50 for this entry: Nc1ncnc2c1ncn2/C=C1/CC1(F)CO (stereo unspecified)
69.3

----------
# Tested on: Human alphaherpesvirus 1
# procedure_details: Inhibition of HSV1 replication in BSC1 cells by ELISA
# Format: functional, organism-based
# assay_context: Human alphaherpesvirus 1, BSC-1
Below, each of the compounds is paired with its reported log10(EC50) value.
Values reflect log10 of reported EC50 (µM).

compound: Cc1cn(/C=C2/CC2(F)CO)c(=O)[nH]c1=O (centres undefined)
log10(EC50): 0.40

Query for Human alphaherpesvirus 1: what log10(EC50) does the record show for Nc1nc2c(ncn2/C=C2\CC2(F)CO)c(=O)[nH]1 (centres undefined) ?
1.95

Query for Human alphaherpesvirus 1: what log10(EC50) does the record show for Nc1ncnc2c1ncn2/C=C1\CC1(F)CO (centres undefined) ?
1.48

Query for Human alphaherpesvirus 1: what log10(EC50) does the record show for Cc1cn(/C=C2\CC2(F)CO)c(=O)[nH]c1=O (centres undefined) ?
1.60

Query for Human alphaherpesvirus 1: what log10(EC50) does the record show for "Nc1nc2c(ncn2COCCO)c(=O)[nH]1" ?
1.00
